Protocol details: physchem
Type: physicochemical
Setup conditions: pH 4, aqueous buffer, thermodynamic from solid, Solubility
Assay endpoint: solubility at 24 h
Numeric answer plus unit only.

# solubility at 24 h lookup, item O=C1CCC(N2Cc3cc(CNC(=O)C(F)(F)c4ccc(Cl)cc4)ccc3C2=O)C(=O)N1 (stereo not shown) [Form C]
1 µg/mL

* * *

Protocol details: physchem
Assay type: physicochemical
Setup conditions: pH 6.8, aqueous buffer, thermodynamic from solid, Solubility
Assay endpoint: solubility at 24 h (µg/mL)
Numbers only, in µg/mL.

What value of measured solubility at 24 h is listed for O=C1CCC(N2Cc3cc(CNC(=O)C(F)(F)c4ccc(Cl)cc4)ccc3C2=O)C(=O)N1 (stereo not shown) [Form C] ?
1
